# system under test: DAT (Rattus norvegicus)
# Construct: 100 μl of tissue preparation (1.5 mg of brain striatum membranes per well); tissue Bioreclamation IVT (Hicksville, N.Y.); host or cells: male Sprague-Dawley rat brain striatum membranes
# Sequence (P23977 whole entry): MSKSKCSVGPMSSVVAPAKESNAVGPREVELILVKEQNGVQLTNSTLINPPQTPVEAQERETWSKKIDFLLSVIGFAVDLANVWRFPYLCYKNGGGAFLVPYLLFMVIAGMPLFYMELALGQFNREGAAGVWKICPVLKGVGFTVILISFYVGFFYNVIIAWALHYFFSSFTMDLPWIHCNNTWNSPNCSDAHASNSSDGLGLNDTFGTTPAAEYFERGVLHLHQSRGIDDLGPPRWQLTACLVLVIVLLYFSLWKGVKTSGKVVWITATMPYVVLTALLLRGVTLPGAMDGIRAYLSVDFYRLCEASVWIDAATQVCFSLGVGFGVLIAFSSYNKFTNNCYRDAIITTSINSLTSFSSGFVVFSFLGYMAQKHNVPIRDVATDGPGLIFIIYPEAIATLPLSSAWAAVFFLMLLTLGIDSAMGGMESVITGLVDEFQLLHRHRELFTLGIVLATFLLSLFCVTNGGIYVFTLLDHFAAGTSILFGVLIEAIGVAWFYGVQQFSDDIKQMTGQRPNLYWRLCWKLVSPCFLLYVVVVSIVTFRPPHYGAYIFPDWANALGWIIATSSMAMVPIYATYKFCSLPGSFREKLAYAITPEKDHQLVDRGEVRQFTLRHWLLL
# test protocol: DAT radioligand binding in rat striatum ([3H]-WIN35,428 competition)
# recorded conditions: ratio of SERT Ki to DAT Ki
Measured SERT/DAT, listed per entry.

{"columns": ["compound", "system under test", "SERT/DAT"],
 "data": [
  ["CC(C)(C)CN1CCC(NCCSC(c2ccc(F)cc2)c2ccc(F)cc2)CC1 [JBG02-066]", "DAT (Rattus norvegicus)", 3.39],
  ["Cl.Cl.Fc1ccc(C(SCCNC2CCN(CCc3ccccc3)CC2)c2ccc(F)cc2)cc1 [JBG01-084]", "DAT (Rattus norvegicus)", 4.57],
  ["Cl.Cl.Fc1ccc(C(SCCN2CCC(NCc3ccc(C(F)(F)F)cc3)CC2)c2ccc(F)cc2)cc1 [JBG01-087]", "DAT (Rattus norvegicus)", 8.13],
  ["O=C(C1CC1)N1CCC(NCCSC(c2ccc(F)cc2)c2ccc(F)cc2)CC1 [JBG02-083]", "DAT (Rattus norvegicus)", 5.67],
  ["CC(O)CN1[C@H](C)CN(CC[S+]([O-])C(c2ccc(F)cc2)c2ccc(F)cc2)C[C@@H]1C (stereo partly drawn) [RDS04-010]", "DAT (Rattus norvegicus)", 77.55],
  ["C[C@@H]1CN(CCSC(c2ccc(F)cc2)c2ccc(F)cc2)C[C@H](C)N1CC(O)Cc1ccccc1 (stereo partly drawn) [RDS03-095]", "DAT (Rattus norvegicus)", 800.00]
]}

====

# test protocol: Phase I metabolic stability in rat liver microsomes
# Format: in vitro ADME
# recorded conditions: 60 min; rat liver microsomes lacking NADPH
recorded metric: Phase I in Liver Microsomes, Negative Control

{"columns": ["compound", "observed measurement"],
 "data": [
  ["Cl.Cl.Fc1ccc(CN2CCC(NCCSC(c3ccc(F)cc3)c3ccc(F)cc3)CC2)cc1", "111%"],
  ["Cl.O=C(c1ccccc1)N1CCC(NCCSC(c2ccc(F)cc2)c2ccc(F)cc2)CC1", "100%"],
  ["C[C@@H]1CN(CC[S+]([O-])C(c2ccc(F)cc2)c2ccc(F)cc2)C[C@H](C)N1CC(O)Cc1ccccc1 (some centres unmarked)", "106%"],
  ["Cl.O=C(c1ccc(F)cc1)N1CCC(NCC[S+]([O-])C(c2ccc(F)cc2)c2ccc(F)cc2)CC1 (centres unmarked)", "91%"],
  ["C[C@@H]1CN(CCSC(c2ccc(F)cc2)c2ccc(F)cc2)C[C@H](C)N1CC(O)Cc1ccccc1 (some centres unmarked)", "125%"]
]}

====

# system under test: SERT (Rattus norvegicus, UniProt P31652)
# Construct: 100 μl of tissue preparation (2 mg of brain stem membranes per well); tissue Bioreclamation IVT (Hicksville, N.Y.); host or cells: male Sprague-Dawley rat brain stem membranes
# Sequence (P31652 whole entry): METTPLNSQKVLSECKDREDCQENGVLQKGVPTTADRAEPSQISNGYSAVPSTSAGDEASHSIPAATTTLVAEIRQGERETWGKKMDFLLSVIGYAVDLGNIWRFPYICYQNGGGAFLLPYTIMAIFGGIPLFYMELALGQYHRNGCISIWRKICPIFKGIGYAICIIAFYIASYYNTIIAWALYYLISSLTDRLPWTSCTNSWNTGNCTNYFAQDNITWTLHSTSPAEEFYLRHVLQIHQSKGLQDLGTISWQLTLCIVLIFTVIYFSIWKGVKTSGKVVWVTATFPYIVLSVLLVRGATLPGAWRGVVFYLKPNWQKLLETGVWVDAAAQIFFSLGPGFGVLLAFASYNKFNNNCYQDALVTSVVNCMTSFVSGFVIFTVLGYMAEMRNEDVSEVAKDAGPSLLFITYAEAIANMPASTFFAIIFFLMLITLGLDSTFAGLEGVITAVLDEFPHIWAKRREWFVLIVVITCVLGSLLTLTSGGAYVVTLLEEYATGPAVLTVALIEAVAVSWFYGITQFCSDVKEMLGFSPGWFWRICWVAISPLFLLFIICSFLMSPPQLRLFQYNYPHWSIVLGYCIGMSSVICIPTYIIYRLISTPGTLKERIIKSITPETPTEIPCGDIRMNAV
# test protocol: SERT radioligand binding in rat midbrain ([3H]-Citalopram competition)

{"columns": ["compound", "system under test", "unit symbol", "Ki"],
 "data": [
  ["Cl.Cl.OC(Cc1ccccc1)CN(CC(O)Cc1ccccc1)C1CCN(CCSC(c2ccc(F)cc2)c2ccc(F)cc2)CC1 (stereo not shown) [JBG01-056]", "SERT (Rattus norvegicus, UniProt P31652)", "µM", 1.57]
]}

====

# system under test: σ1R (Cavia porcellus)
# Construct: tissue BioReclamation IVT (Hicksville, N.Y.); host or cells: male Hartley guinea pig brain cortex membranes
# Sequence (Q60492 whole entry): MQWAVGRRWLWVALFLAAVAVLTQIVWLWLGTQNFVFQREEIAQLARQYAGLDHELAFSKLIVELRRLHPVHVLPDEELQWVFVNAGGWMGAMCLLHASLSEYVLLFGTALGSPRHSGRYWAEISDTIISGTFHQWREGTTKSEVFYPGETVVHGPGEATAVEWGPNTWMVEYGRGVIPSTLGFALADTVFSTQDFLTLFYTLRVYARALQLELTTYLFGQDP
# test protocol: σ1R radioligand binding in guinea pig cortex ([3H]-(+)-Pentazocine competition)
# recorded conditions: ratio of σ1 to DAT affinity values
Label scheme for σ1/DAT: lower than 1 is not fulfilled, 1 and above is fulfilled.

{"columns": ["compound", "class name"],
 "data": [
  ["CC(C)(C)CN1CCC(NCCSC(c2ccc(F)cc2)c2ccc(F)cc2)CC1", "fulfilled"],
  ["Cl.O=C(c1ccc(F)cc1)N1CCC(NCC[S+]([O-])C(c2ccc(F)cc2)c2ccc(F)cc2)CC1 (centres unmarked)", "fulfilled"],
  ["Fc1ccc(C(SCCN2CCC(NCc3ccccc3)CC2)c2ccc(F)cc2)cc1", "not fulfilled"],
  ["Cl.Cl.[O-][S+](CCNC1CCN(Cc2ccc(F)cc2)CC1)C(c1ccc(F)cc1)c1ccc(F)cc1 (centres unmarked)", "not fulfilled"],
  ["C[C@@H]1CN(CC[S+]([O-])C(c2ccc(F)cc2)c2ccc(F)cc2)C[C@H](C)N1CC(O)Cc1ccccc1 (some centres unmarked)", "fulfilled"],
  ["CC(C)(C)CN1CCC(NCC[S+]([O-])C(c2ccc(F)cc2)c2ccc(F)cc2)CC1 (centres unmarked)", "fulfilled"],
  ["CC(C)(C)C(=O)N1CCC(NCC[S+]([O-])C(c2ccc(F)cc2)c2ccc(F)cc2)CC1 (centres unmarked)", "fulfilled"],
  ["O=C(c1ccc(F)cc1)N1CCC(NCCSC(c2ccc(F)cc2)c2ccc(F)cc2)CC1", "fulfilled"]
]}

====

# test protocol: Phase I metabolic stability in rat liver microsomes
# Format: in vitro ADME
# recorded conditions: 30 min; rat liver microsomes lacking NADPH
recorded metric: Phase I in Liver Microsomes, Negative Control (%)

{"columns": ["compound", "unit symbol", "observed measurement"],
 "data": [
  ["C[C@@H]1CN(CC[S+]([O-])C(c2ccc(F)cc2)c2ccc(F)cc2)C[C@H](C)N1CC(O)Cc1ccccc1 (some centres unmarked)", "%", 132],
  ["C[C@@H]1CN(CCSC(c2ccc(F)cc2)c2ccc(F)cc2)C[C@H](C)N1CC(O)Cc1ccccc1 (some centres unmarked)", "%", 117],
  ["[O-][S+](CCNC1CCN(CC(O)Cc2ccccc2)CC1)C(c1ccc(F)cc1)c1ccc(F)cc1 (centres unmarked)", "%", 102],
  ["CC(O)CN1[C@H](C)CN(CC[S+]([O-])C(c2ccc(F)cc2)c2ccc(F)cc2)C[C@@H]1C (some centres unmarked)", "%", 130],
  ["Cl.Cl.[O-][S+](CCNC1CCN(Cc2ccc(F)cc2)CC1)C(c1ccc(F)cc1)c1ccc(F)cc1 (centres unmarked)", "%", 102],
  ["CC(O)CN1[C@H](C)CN(CCSC(c2ccc(F)cc2)c2ccc(F)cc2)C[C@@H]1C (some centres unmarked)", "%", 106],
  ["Cl.O=C(c1ccc(F)cc1)N1CCC(NCC[S+]([O-])C(c2ccc(F)cc2)c2ccc(F)cc2)CC1 (centres unmarked)", "%", 97],
  ["OC(CN1CCC2(CCN(CCSC(c3ccc(F)cc3)c3ccc(F)cc3)CC2)C1)c1ccccc1 (centres unmarked)", "%", 128]
]}

====

Measured Phase I in Liver Microsomes, Rat, listed per entry.
# test protocol: Phase I metabolic stability in rat liver microsomes
# Type: in vitro ADME
# recorded conditions: 30 min; with NADPH; 10 μM compound; 0.5 mg/mL microsomes
recorded metric: Phase I in Liver Microsomes, Rat (%)

{"columns": ["compound", "observed measurement"],
 "data": [
  ["Cl.Cl.OC(Cc1ccccc1)CN1CCC(NCCSC(c2ccc(F)cc2)c2ccc(F)cc2)CC1 (stereo not shown)", 98],
  ["OC(CN1CCC2(CCN(CCSC(c3ccc(F)cc3)c3ccc(F)cc3)CC2)C1)c1ccccc1 (stereo not shown)", 100],
  ["Cl.O=C(c1ccc(F)cc1)N1CCC(NCC[S+]([O-])C(c2ccc(F)cc2)c2ccc(F)cc2)CC1 (stereo not shown)", 100],
  ["O=C(c1ccc(F)cc1)N1CCC(NCCSC(c2ccc(F)cc2)c2ccc(F)cc2)CC1", 40],
  ["Cl.Cl.OC(CNC1CCN(CCSC(c2ccc(F)cc2)c2ccc(F)cc2)CC1)Cc1ccccc1 (stereo not shown)", 83],
  ["C[C@@H]1CN(CC[S+]([O-])C(c2ccc(F)cc2)c2ccc(F)cc2)C[C@H](C)N1CC(O)Cc1ccccc1 (stereo partly shown)", 58],
  ["Cl.Cl.Fc1ccc(CN2CCC(NCCSC(c3ccc(F)cc3)c3ccc(F)cc3)CC2)cc1", 88],
  ["C[C@@H]1CN(CCSC(c2ccc(F)cc2)c2ccc(F)cc2)C[C@H](C)N1CC(O)Cc1ccccc1 (stereo partly shown)", 42],
  ["Cl.Cl.[O-][S+](CCNC1CCN(Cc2ccc(F)cc2)CC1)C(c1ccc(F)cc1)c1ccc(F)cc1 (stereo not shown)", 100],
  ["CC(O)CN1[C@H](C)CN(CC[S+]([O-])C(c2ccc(F)cc2)c2ccc(F)cc2)C[C@@H]1C (stereo partly shown)", 115],
  ["Cl.O=C(c1ccccc1)N1CCC(NCCSC(c2ccc(F)cc2)c2ccc(F)cc2)CC1", 20],
  ["CC(O)CN1[C@H](C)CN(CCSC(c2ccc(F)cc2)c2ccc(F)cc2)C[C@@H]1C (stereo partly shown)", 99],
  ["[O-][S+](CCNC1CCN(CC(O)Cc2ccccc2)CC1)C(c1ccc(F)cc1)c1ccc(F)cc1 (stereo not shown)", 50]
]}

Cited source for all entries: patent US11365195B2
